B1: EEHEE_rd4_0647 (parent)
chain: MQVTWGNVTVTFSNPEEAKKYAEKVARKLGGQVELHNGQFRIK

# Variants of: B1
# EXPERIMENTAL_PROTOCOL: folding stability dG (cDNA display proteolysis); higher = more stable
# SETUP_CONDITIONS: PBS, room temperature
Examples of variants with documented folding stability dG follow.
Report the value in kcal/mol with no unit label.

Example entries begin here.
{"columns": ["MUTATION_SPEC", "MEASUREMENT_KIND", "READOUT_VALUE"],
 "data": [
  ["N37A", "folding stability dG", 2.05],
  ["Q32Y", "folding stability dG", 3.33],
  ["A26E", "folding stability dG", 0.315],
  ["S13Q", "folding stability dG", 2.71]
]}

Request the reported folding stability dG associated with "A22W"
1.04

Request the reported folding stability dG associated with "V10I"
2.94

Request the reported folding stability dG associated with "F40H"
1.07

Request the reported folding stability dG associated with "K28F"
2.97

Request the reported folding stability dG associated with "P15D"
1.92

Sourced from the MegaScale stability set (Tsuboyama et al. 2023)
